- STUDY_TARGET: mu opiate receptor (MOR) (Rattus norvegicus, UniProt P33535)
- Construct: from tissue; host or cells: striatum (membrane preparation)
- Sequence (P33535 whole entry): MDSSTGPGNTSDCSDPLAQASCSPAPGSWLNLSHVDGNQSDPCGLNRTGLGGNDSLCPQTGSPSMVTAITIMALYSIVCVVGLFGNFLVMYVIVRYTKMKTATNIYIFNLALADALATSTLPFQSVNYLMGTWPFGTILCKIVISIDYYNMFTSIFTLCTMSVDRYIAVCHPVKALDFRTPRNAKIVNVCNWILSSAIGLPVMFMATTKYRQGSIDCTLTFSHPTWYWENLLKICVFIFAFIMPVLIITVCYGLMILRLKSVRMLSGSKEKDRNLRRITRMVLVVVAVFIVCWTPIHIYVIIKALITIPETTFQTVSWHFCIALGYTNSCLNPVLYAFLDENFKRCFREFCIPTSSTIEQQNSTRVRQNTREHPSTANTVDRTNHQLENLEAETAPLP
- Assay type: biochemical
RECORDED_ENDPOINT: Concentration of FLNA-Binding Compound as Agonist 0.1 μM
Please report the result as a number followed by the unit.

**Query** Missing value: Concentration of FLNA-Binding Compound as Agonist 0.1 μM, mu opiate receptor (MOR) (Rattus norvegicus, UniProt P33535), entry CC1CCC(C(C)C)C(OCC(O)Cn2ccc3ccccc32)C1 (stereo not shown) . Fill in?
**Result** 250.5%

**Query** Next compound: CC1CCC(C(C)C)C(OCC(O)CN2CCSCC2)C1 (stereo not shown)
**Result** 176.8%

**Query** Next compound: `COc1ccc(S(=O)(=O)N2CCC3(CC2)OCCN3S(=O)(=O)c2ccc(C(C)=O)cc2)cc1`
**Result** 209.1%

**Query** Next compound: `CC(=O)c1ccc(S(=O)(=O)N2CCC3(CC2)OCCN3S(=O)(=O)c2ccc(C(C)=O)cc2)cc1`
**Result** 217.0%

Ref: patent US10760052B2
